Parameter: Emax. Scope: all listed entries.
Target: cloned human 5-HT1A receptors (Homo sapiens)
Construct: expressed in transfected cells
Sequence (P08908 whole entry): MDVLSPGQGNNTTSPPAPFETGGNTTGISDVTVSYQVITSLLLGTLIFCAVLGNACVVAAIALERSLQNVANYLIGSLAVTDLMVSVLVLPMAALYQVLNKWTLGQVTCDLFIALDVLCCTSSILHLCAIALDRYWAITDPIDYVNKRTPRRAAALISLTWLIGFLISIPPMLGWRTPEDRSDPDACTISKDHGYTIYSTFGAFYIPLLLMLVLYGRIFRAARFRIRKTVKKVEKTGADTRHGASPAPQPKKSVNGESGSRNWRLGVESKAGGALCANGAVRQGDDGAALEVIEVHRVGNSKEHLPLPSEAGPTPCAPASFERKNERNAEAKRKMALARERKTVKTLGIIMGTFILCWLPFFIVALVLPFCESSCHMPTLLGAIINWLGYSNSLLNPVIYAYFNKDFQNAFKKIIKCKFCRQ
Assay: 35S-GTPγS binding assay, 5-HT1A function
Type: biochemical
Settings: maximum inhibitory effect, in brackets after IC50; read-out: 5-HT1A Function GTPγS (Imax)
measurement type: Emax (%)

compound: NC(=O)c1ccc(F)c2c1CC(N(CCCCn1ccc3cccc(F)c31)C1CCC1)CO2 (centres unmarked)
endpoint unit: %
value reported: 86
//
compound: CCCCN(CCCc1c[nH]c2ccc(F)cc12)C1COc2c(F)ccc(C(N)=O)c2C1 (centres unmarked)
endpoint unit: %
value reported: 43
//
compound: O=C(O)c1ccc(F)c2c1CC(N(CCCc1c[nH]c3ccc(F)cc13)C1CCC1)CO2 (centres unmarked)
endpoint unit: %
value reported: 50
//
compound: CC(C)NC(=O)c1ccc(F)c2c1CC(N(CCCc1c[nH]c3ccc(F)cc13)C1CCC1)CO2 (centres unmarked)
endpoint unit: %
value reported: 76
//
compound: CCN(CCCc1c[nH]c2ccc(Cl)cc12)C1COc2c(F)ccc(C(N)=O)c2C1 (centres unmarked)
endpoint unit: %
value reported: 72
//
compound: C[C@H](CCN(C1CCC1)[C@H]1COc2c(F)ccc(C(N)=O)c2C1)c1c[nH]c2ccc(F)cc12 [Compound 152a]
endpoint unit: %
value reported: 100
//
compound: NC(=O)c1ccc(F)c2c1CC(N(CCCCc1c[nH]c3ccc(F)cc13)CC1CC1)CO2 (centres unmarked)
endpoint unit: %
value reported: 100
//
compound: COC(=O)c1ccc(F)c2c1CC(N(CCCc1c[nH]c3ccc(F)cc13)C1CCC1)CO2 (centres unmarked)
endpoint unit: %
value reported: 62
